Test system: SYO-1 complex spheroid growth, percent test/control
Experimental protocol: Anticancer human tumor SYO-1 cell line growth inhibition [Asc]; active = viability on the fitted dose curve at most 10% of control; inactive = the rest;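 also: compound exposure lasted 7 days after spheroids grew 3 days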
Reported conditions: second compound 0.03 µM; first compound 0.0316 µM
Please answer using one outcome listed in active, inactive

q: Could you please tell me the result logged for CNC(C)C(=O)NC1CN(S(=O)(=O)c2cccc(S(=O)(=O)N3CCC4CCC(C(=O)NC(c5ccccc5)c5ccccc5)N4C(=O)C(NC(=O)C(C)NC)C3)c2)CCC2CCC(C(=O)NC(c3ccccc3)c3ccccc3)N2C1=O (centres undefined) + CCN1C(C(=O)NC23CCC(C(=O)O)(CC2)CC3)C(c2cccc(Cl)c2F)C2(C(=O)Nc3cc(Cl)ccc32)C12CCCCC2 in this assay?
a: inactive

q: Which result was noted for this compound in the test: Cn1ncnc1[C@H]1c2n[nH]c(=O)c3cc(F)cc(c23)N[C@@H]1c1ccc(F)cc1 + CCN1C(C(=O)NC23CCC(C(=O)O)(CC2)CC3)C(c2cccc(Cl)c2F)C2(C(=O)Nc3cc(Cl)ccc32)C12CCCCC2
a: active

q: Just curious, what result did CCN1CCN(Cc2ccc(Nc3ncc(F)c(-c4cc(F)c5nc(C)n(C(C)C)c5c4)n3)nc2)CC1 + CCN1C(C(=O)NC23CCC(C(=O)O)(CC2)CC3)C(c2cccc(Cl)c2F)C2(C(=O)Nc3cc(Cl)ccc32)C12CCCCC2 get here?
a: inactive

q: // outcome(item) with item = C#Cc1c(F)ccc2cc(O)cc(-c3ncc4c(N5CC6CCC(C5)N6)nc(OCC56CCCN5CC(F)C6)nc4c3F)c12 (centres undefined) + CCN1C(C(=O)NC23CCC(C(=O)O)(CC2)CC3)C(c2cccc(Cl)c2F)C2(C(=O)Nc3cc(Cl)ccc32)C12CCCCC2
a: inactive
